- System: RWPE2
- Assay comment: In vitro cell proliferation assay (MTS)
- Assay type: cell-based, human
- Conditions used: Homo sapiens, 72 h; RWPE2 cells; MTS, three days; read-out: mean IC50 (μM) to BMS-A
Property measured: IC50 (µM)
Give a bare numeral; the unit µM is implied.

Endpoint output: IC50 of Cc1nc(Nc2ncc(C(=O)Nc3c(C)cccc3Cl)s2)cc(N2CCN(CCO)CC2)n1 [BMS-A] . Value?
0.151

---

- System: PC3
- Assay comment: In vitro cell proliferation assay (MTS)
- Type: cell-based, human
- Conditions used: Homo sapiens, PC-3, 72 h; PC3 cells; MTS, three days; read-out: mean IC50 (μM) to BMS-A
Property measured: IC50 (µM)
Give a bare numeral; the unit µM is implied.

Endpoint output: IC50 of `Cc1nc(Nc2ncc(C(=O)Nc3c(C)cccc3Cl)s2)cc(N2CCN(CCO)CC2)n1` . Value?
0.051

---

- Tested on: WPMY1
- Assay comment: In vitro cell proliferation assay (MTS)
- Assay type: cell-based, human
- Conditions used: Homo sapiens, WPMY-1, 72 h; WPMY1 cells; MTS, three days; highly resistant: concentration that consistently reduced proliferation used as IC50; read-out: mean IC50 (μM) to BMS-A
Property measured: IC50 (µM)
Give a bare numeral; the unit µM is implied.

Endpoint output: IC50 of `Cc1nc(Nc2ncc(C(=O)Nc3c(C)cccc3Cl)s2)cc(N2CCN(CCO)CC2)n1` . Value?
2.5

---

- Test system: RWPE1
- Assay comment: In vitro cell proliferation assay (MTS)
- Type: cell-based, human
- Conditions used: Homo sapiens, RWPE-1, 72 h; RWPE1 cells; MTS, three days; read-out: mean IC50 (μM) to BMS-A
Property measured: IC50 (µM)
Give a bare numeral; the unit µM is implied.

Reported IC50 for RWPE1, given Cc1nc(Nc2ncc(C(=O)Nc3c(C)cccc3Cl)s2)cc(N2CCN(CCO)CC2)n1 [BMS-A] ?
0.12

The reported numbers originate from patent US20100120788A1.
